Biological target: von Hippel-Lindau disease tumor suppressor/Androgen receptor (Homo sapiens, UniProt P10275+P40337)
Sequence (P10275 whole entry): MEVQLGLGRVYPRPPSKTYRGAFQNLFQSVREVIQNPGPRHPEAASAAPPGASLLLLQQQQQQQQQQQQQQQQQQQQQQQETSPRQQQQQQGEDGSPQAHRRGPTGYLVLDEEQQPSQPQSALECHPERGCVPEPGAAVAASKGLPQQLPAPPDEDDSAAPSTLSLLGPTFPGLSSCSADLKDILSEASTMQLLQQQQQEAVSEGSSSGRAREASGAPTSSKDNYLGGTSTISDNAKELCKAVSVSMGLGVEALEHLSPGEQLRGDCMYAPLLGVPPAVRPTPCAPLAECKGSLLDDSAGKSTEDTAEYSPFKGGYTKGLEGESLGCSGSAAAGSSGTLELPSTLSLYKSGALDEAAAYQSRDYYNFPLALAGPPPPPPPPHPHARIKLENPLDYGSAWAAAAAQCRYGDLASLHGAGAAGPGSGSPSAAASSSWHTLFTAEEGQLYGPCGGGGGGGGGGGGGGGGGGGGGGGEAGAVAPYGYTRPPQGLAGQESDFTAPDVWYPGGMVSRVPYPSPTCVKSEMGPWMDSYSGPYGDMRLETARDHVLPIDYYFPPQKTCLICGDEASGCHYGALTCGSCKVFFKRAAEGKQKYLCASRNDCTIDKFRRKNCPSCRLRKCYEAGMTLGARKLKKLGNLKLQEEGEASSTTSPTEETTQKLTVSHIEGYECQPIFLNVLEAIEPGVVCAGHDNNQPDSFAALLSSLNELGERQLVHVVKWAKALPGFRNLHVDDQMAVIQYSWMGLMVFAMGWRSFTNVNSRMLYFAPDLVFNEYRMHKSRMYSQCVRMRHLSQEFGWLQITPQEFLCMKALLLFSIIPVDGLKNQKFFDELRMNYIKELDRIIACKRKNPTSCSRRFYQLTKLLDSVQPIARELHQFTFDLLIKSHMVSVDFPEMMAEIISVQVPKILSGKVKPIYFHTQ
Sequence (P40337 whole entry): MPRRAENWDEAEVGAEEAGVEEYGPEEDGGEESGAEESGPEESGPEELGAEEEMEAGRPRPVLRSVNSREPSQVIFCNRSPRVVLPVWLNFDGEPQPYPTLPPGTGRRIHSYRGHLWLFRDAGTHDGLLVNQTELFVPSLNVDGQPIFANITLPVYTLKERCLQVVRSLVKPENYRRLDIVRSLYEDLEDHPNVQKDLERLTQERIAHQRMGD
Assay: Protac activity at E3 ubiquitin-protein ligase/AR in human LNCAP cells assessed as induction of AR degradation after 24 hrs by ELISA
Type: cell-based
Please go through the items and note down their DC50.

Solved entries (count: 2):
• Cc1ncsc1-c1ccc([C@H](C)NC(=O)[C@@H]2C[C@@H](O)CN2C(=O)[C@@H](NC(=O)COCCCOCCCCCOc2ccc(N3C(=S)N(c4ccc(C#N)c(C(F)(F)F)c4)C(=O)C3(C)C)cc2F)C(C)(C)C)cc1 = ≤ 50 µM
• Cc1ncsc1-c1ccc(CNC(=O)[C@@H]2C[C@@H](O)CN2C(=O)[C@@H](NC(=O)COCCCOCCCCCOc2ccc(N3C(=S)N(c4ccc(C#N)c(C(F)(F)F)c4)C(=O)C3(C)C)cc2)C(C)(C)C)cc1 = ≤ 50 µM

// next item, DC50 requested
Query: Quick check: DC50 of Cc1ncsc1-c1ccc([C@H](C)NC(=O)[C@@H]2C[C@@H](O)CN2C(=O)[C@@H](NC(=O)COCCCOCCCCCOc2c(F)cc(N3C(=S)N(c4ccc(C#N)c(C(F)(F)F)c4)C(=O)C3(C)C)cc2F)C(C)(C)C)cc1 ?
Response: ≤ 50 µM
